target: T1, D427N PKCβII catalytic domain (UniProt P05771-2 321-673, D427N, phosphorylated at T500 and at the other two PKC priming sites in the C-terminal tail); experiment: fluorescence polarisation; PKCβII catalytic domain titrated into 280 nM fluorescein-PSS peptide in a cuvette; 20°C; 50 mM Tris-HCl pH 7.5, 150 mM NaCl, 5 mM MgCl2, 0.05% Brij-35, 500 μM AMP-PCP, 5% glycerol; anisotropy fitted assuming a 1:1 interaction; details: both partners purified
T1 construct: D427N is a somatic mutation found in ATLL patients; source: SF21 cells (baculovirus), purified (Glutathione-Sepharose, His-TEV cleavage, Superdex 200); not shown: GST, N-terminal, cleaved
T1 sequence (P05771 other isoform, or with tags, fused parts or gaps D427N | D427N | D427N D427N): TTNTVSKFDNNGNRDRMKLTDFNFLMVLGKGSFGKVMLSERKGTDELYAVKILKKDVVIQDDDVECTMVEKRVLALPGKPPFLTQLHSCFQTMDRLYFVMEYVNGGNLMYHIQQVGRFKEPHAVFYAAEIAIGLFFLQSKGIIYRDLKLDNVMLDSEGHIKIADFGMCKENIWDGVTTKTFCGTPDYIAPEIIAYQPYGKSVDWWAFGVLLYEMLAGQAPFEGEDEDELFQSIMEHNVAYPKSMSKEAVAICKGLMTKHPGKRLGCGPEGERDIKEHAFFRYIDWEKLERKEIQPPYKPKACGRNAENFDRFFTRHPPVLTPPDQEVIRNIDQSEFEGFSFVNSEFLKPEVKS
FAM = fluorescein label
PROPERTY: pKd
Worth noting: pKd values are minus log10 of concentrations stated in mol/L.

Task: Specify pKd for {FAM}-ESTVRFARKGSLRQKNVH-NH2 (source: synthetic peptide (HPLC purified to >95%)) [Fluorescein-PSS peptide] and stop.
Output: 4.14
